Origin of measurements: patent US12473304B2

molecular target: UniProt:Q9UM07; assay: RFMS Human PAD4 Functional Assay 1; conditions: RFMS assay 1; 5 nM hPAD4, 250 μM BAEE substrate, 50 μM calcium, 37° C.
pIC50: −log10 of the molar value.
Measure: pIC50

(1) Cc1c(-c2cc3ccc(-c4ccc5c(c4)C(=O)NC5)nc3n2CC2CC2)nn2cc(C(=O)N3C[C@H](N)C[C@@H](F)C3)ccc12
(2) COc1cc(C(=O)N2C[C@H](N)C[C@@H](F)C2)cn2nc(-c3cc4cccc(OCCn5cncn5)c4n3CC3CC3)c(C)c12
(3) Cc1c(-c2cc3ccc(-c4ccn5c(C)nnc5c4)cc3n2CC2CC2)oc2cc(C(=O)N3CC4CCC3[C@@H]4N)ccc12 (stereo partly drawn)
stdin: Sort the entries above numerically by pIC50, high end first. Present the labels in the sequence the task asks for.
stdout: 2, 3, 1
(2: 7.70, 3: 7.46, 1: 6.42)

----------
Molecular target: human PAD4 (hPAD4) (Homo sapiens (Human))
Sequence (Q9UM07 whole entry): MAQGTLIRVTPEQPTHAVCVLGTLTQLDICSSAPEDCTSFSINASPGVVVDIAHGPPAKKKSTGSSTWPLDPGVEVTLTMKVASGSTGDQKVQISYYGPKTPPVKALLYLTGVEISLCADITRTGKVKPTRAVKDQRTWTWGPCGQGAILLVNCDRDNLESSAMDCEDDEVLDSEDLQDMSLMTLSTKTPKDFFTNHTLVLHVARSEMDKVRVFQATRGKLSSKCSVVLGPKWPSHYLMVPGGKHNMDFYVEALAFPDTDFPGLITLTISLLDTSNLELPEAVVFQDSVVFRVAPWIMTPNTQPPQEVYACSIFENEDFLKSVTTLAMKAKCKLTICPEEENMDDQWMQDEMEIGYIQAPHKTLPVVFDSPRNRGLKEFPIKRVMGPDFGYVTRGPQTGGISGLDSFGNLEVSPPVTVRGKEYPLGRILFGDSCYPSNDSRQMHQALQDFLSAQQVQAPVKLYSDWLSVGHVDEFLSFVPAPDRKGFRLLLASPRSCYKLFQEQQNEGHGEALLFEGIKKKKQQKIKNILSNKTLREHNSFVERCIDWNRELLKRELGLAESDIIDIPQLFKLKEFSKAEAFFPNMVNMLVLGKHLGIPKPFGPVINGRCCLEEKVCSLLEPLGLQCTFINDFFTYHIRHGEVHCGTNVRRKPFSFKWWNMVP
Assay: RFMS Human PAD4 Functional Assay 1
Details: RFMS assay 1; 5 nM hPAD4, 250 μM BAEE substrate, 50 μM calcium, 37° C.
Description: RFMS Human PAD4 Functional Assay 1: Compounds were solubilized in 100% DMSO to achieve all) mM compound concentration. Compound stock solutions were stored at RT. A series of dilutions were prepared in DMSO and mixed 8 times with 20 μL mixing volume. Final top concentration of compound in the assay is 50 μM. […] MRM transition of product and internal standard were monitored at m/z 424.5 to 350.4 and m/z 293 to 247 respectively. […]
Measure: IC50 (nM)

Molecule | IC50 (nM)
Cc1c(-c2cc3cccc(C4CCN(C(=O)COC(C)C)CC4)c3n2CC2CC2)nn2cc(C(=O)N3C[C@H](N)C[C@@H](F)C3)ccc12 | 130
COc1cc(C(=O)N2CCC[C@@H](N)C2)cn2nc(-c3cc4cccc(C5CCN(C(=O)[C@H]6CC[C@@H](O)CC6)CC5)c4n3CC3CC3)c(C)c12 | 90
COCC(=O)N1CCC(c2cc(F)cc3cc(-c4nn5cc(C(=O)N6C[C@H](N)C[C@@H](F)C6)cc(OC)c5c4C)n(CC4CC4)c23)CC1 | 120
COc1cc(C(=O)N2CCC[C@@H](N)C2)cn2nc(-c3cc4ccc(-c5ccccc5C(N)=O)cc4n3CC3CC3)c(C)c12 | 250
Cc1c(-c2cc3cc(F)cc(C4CCN(C(=O)C5CCCO5)CC4)c3n2CC2CC2)nn2cc(C(=O)N3CCC[C@@H](N)C3)ccc12 (single isomer, unassigned) [Example 488] | 250
Cc1c(-c2cc3ccc(-c4cccc5[nH]nc(F)c45)nc3n2CC2CC2)nn2cc(C(=O)N3CC4CCC3[C@@H]4N)ccc12 (stereo partly drawn) | 190

(A) COc1cc(C(=O)N2C[C@H](N)C[C@@H](F)C2)cn2nc(-c3cc4cccc(C5CN(C(=O)C(C)(C)OC)C5)c4n3CC3CC3)c(C)c12
(B) Cc1c(-c2cc3ccc(-c4ccn5c(C)nnc5c4)nc3n2CC2CC2)oc2cc(C(=O)N3CC4CCC3[C@@H]4N)ccc12 (stereo partly drawn)
stdin: For the two items A and B , which reports the higher IC50 value? Please respond with the label that marks your chosen entry.
stdout: A
